- Target of assay: Scavenger receptor class B member 1 (Mus musculus)
- Experiment: mouse SR-BI DiI-HDL uptake blockers – ldlA[mSR-BI] cells, fluorescence, single point, primary screen (AID 488896);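 also: 0% = median of neutral control wells and 100% = median of positive control wells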
- Settings: ldlA[mSR-BI] CHO cells, 3 h, at 12.5 µM, hits give high values
About 3,100 (0.97%) of roughly 320,000 compounds were called active. The full list was thinned out, with actives kept by preference.
# Lookup of reported inhibition keyed by entry
State just the number; it will be interpreted in %.

- Molecule: "O=C(Cc1cc(=O)[nH][nH]1)N/N=C/c1ccccc1[N+](=O)[O-]"
  Target of assay: "Scavenger receptor class B member 1 (Mus musculus)"
  Unit tag: "%"
  Readout value: -19.1
- Molecule: "CCN1C(=O)/C(=C\\N2CCN(c3cccc(Cl)c3)CC2)SC1=S"
  Target of assay: "Scavenger receptor class B member 1 (Mus musculus)"
  Unit tag: "%"
  Readout value: 8.1
- Molecule: "CCCCN(C)CCC(=O)Nc1ccc(Cl)cc1"
  Target of assay: "Scavenger receptor class B member 1 (Mus musculus)"
  Unit tag: "%"
  Readout value: -5.92
- Molecule: "O=C(N/N=C/c1cc(Cl)cc([N+](=O)[O-])c1O)C(O)(c1ccccc1)c1ccccc1"
  Target of assay: "Scavenger receptor class B member 1 (Mus musculus)"
  Unit tag: "%"
  Readout value: 77.8
- Molecule: "Cc1nc(-c2ccc(Cl)cc2)sc1C(=O)NN"
  Target of assay: "Scavenger receptor class B member 1 (Mus musculus)"
  Unit tag: "%"
  Readout value: 25.2

The reported inhibition of the molecule "COc1cccc(NC(=O)CN2CCN(c3nc(-c4cccc(OC)c4)cs3)CC2)c1" was 19.1

The reported inhibition of the molecule "O=C(Nc1cccc(S(=O)(=O)N2CCCCC2)c1)c1ccc2c(c1)OCO2" was 8.54

The reported inhibition of the molecule "Cc1nn(-c2ccc(F)cc2)c(Cl)c1/C=C(/CCC(=O)O)c1nc2ccccc2s1" was -16

The reported inhibition of the molecule "C=CCNC(=O)c1sc(SC)cc1-c1ccc(Cl)cc1" was 73.9

The reported inhibition of the molecule CCC1(C)COC(c2ccc(OC)c(OC)c2)OC1 (stereo unspecified) was -11.4

The reported inhibition of the molecule "CCCCC(=O)Nc1nc(C)c(-c2csc(Nc3ccc(Cl)cc3)n2)s1" was 103
